assay: Concentration of compound required for reduction of p24 production in HIV-1 (IIIB) infected peripheral blood mononuclear cells; assay type: functional; details: Homo sapiens
REPORTED_ENDPOINT: EC50 (mg/L)

Field: example entries. Status: answers known.
>  <SMILES_RECORD>
Cn1cc(C(=O)O)c(=O)c2cc(N)c(N3CCN(c4nc5ccccc5o4)CC3)cc21

>  <EC50 (mg/L)>
0.04

$$$$
>  <SMILES_RECORD>
Cn1cc(C(=O)O)c(=O)c2cc(N)c(N3CCN(c4cnccn4)CC3)cc21

>  <EC50 (mg/L)>
0.04

$$$$
>  <SMILES_RECORD>
Cn1cc(C(=O)O)c(=O)c2ccc(N3CCN(c4ccccn4)CC3)cc21

>  <EC50 (mg/L)>
1.37

$$$$
>  <SMILES_RECORD>
Cn1cc(C(=O)O)c(=O)c2cc(N)c(N3CCN(c4cccc(C(F)(F)F)c4)CC3)cc21

>  <EC50 (mg/L)>
0.05

$$$$

(I) Cn1cc(C(=O)O)c(=O)c2cc(N)c(N3CCN(c4ccccn4)CC3)cc21
(II) Nc1cc2c(=O)c(C(=O)O)cn(N3CCN(c4ccccn4)CC3)c2cc1N1CCN(c2ccccn2)CC1
(III) Cn1cc(C(=O)O)c(=O)c2cc(N)c(N3CCN(c4nccs4)CC3)cc21
(IV) Nc1cc2c(=O)c(C(=O)O)cn(C3CC3)c2cc1N1CCN(c2cccc(C(F)(F)F)c2)CC1
Ask | In this exercise, place the 4 compounds in ascending sequence of their recorded EC50. Give me the labels in the order the question wants.
Reply | III, I, IV, II

* * *

CC50 by entry:
experiment: Concentration of compound that reduces the viability of mock-infected peripheral blood mononuclear cells by 50%; assay type: functional; conditions: Homo sapiens
Give just the number in µg/mL; leave the unit off.

# example entries with known answers
>  <SMILES_RECORD>
Cn1cc(C(=O)O)c(=O)c2cc(N)c(N3CCN(c4cnccn4)CC3)cc21

>  <UNIT_TEXT>
µg/mL

>  <DATA_VALUE>
3.65

$$$$
>  <SMILES_RECORD>
Cn1cc(C(=O)O)c(=O)c2cc(N)c(N3CCN(c4ccccn4)CC3)cc21

>  <UNIT_TEXT>
µg/mL

>  <DATA_VALUE>
1.45

$$$$
>  <SMILES_RECORD>
Cn1cc(C(=O)O)c(=O)c2cc(N)c(N3CCN(c4nc5ccccc5o4)CC3)cc21

>  <UNIT_TEXT>
µg/mL

>  <DATA_VALUE>
1.12

$$$$

// field: CC50; key: Nc1cc2c(=O)c(C(=O)O)cn(C3CC3)c2cc1N1CCN(c2cccc(C(F)(F)F)c2)CC1 ; value = 4.63

* * *

system: MT4; assay: Selectivity index towards HIV-1 (IIIB) in MT-4 cells; format: functional, Homo sapiens

>  <SMILES_RECORD>
COc1ccccc1N1CCN(c2cc3c(cc2N)c(=O)c(C(=O)O)cn3C)CC1

>  <Selectivity index>
<1

$$$$
>  <SMILES_RECORD>
Cn1cc(C(=O)O)c(=O)c2cc([N+](=O)[O-])c(N3CCN(c4ccccn4)CC3)cc21

>  <Selectivity index>
<1

$$$$
>  <SMILES_RECORD>
Cn1cc(C(=O)O)c(=O)c2cc(N)c(N3CCN(c4ccccn4)CC3)cc21

>  <Selectivity index>
<=2.4

$$$$
